- Tested on: Candida albicans
- Condition Set: Concentration 32 ug.mL-1; ASSAY_TEST Inhibition of Fungal Growth; detection method Absorption (OD530)
- Description: Antifungal activity against Candida albicans ATCC 90028 (CO-ADD:FG_001); MIC in YNB media using NBS plates, by OD630
Potency and affinity values are given separately.

| Chem Smiles | Unit Descriptor | Inhibition |
| --- | --- | --- |
| O=C(CSc1nnc2c(=O)n(-c3ccc(F)c(F)c3)ccn12)c1ccccc1Cl | % | 3.43 |
| COc1ccc(-n2ccn3c(-c4ccc([N+](=O)[O-])cc4)nnc3c2=O)cc1Cl | % | 5.76 |
| Cc1[nH]c2ccccc2c1C(=O)CSc1nnc2c(=O)n(-c3ccc(Br)cc3)ccn12 | % | 1.31 |
| O=S(=O)(c1ccc2nncn2c1)N(Cc1ccccc1F)c1ccc2c(c1)OCO2 | % | 1.66 |
| Cc1c(Cl)cccc1NC(=O)Cn1nc2c(N3CCOCC3)nc3ccccc3n2c1=O | % | 0.17 |
| O=C(CSc1nnc2c(=O)n(-c3ccccc3)ccn12)Nc1ccc2c(c1)OCCO2 | % | 0.98 |
| Cc1ccc(C)c(Cn2nc3n(CCC(C)C)c(=O)c4sccc4n3c2=O)c1 | % | 0.71 |
| CCCCc1ccc(NC(=O)Cn2c(=O)c3nnc(CCC)n3c3ccccc32)cc1 | % | 4.08 |
| CCOc1ccc(-n2ccn3c(SCC(=O)Nc4ccc(C)c(C)c4)nnc3c2=O)cc1 | % | 2.77 |
| Cc1ccc(Cl)cc1NC(=O)Cn1nc2c3c4c(sc3ncn2c1=O)CCCCC4 | % | 1.16 |
| O=C(Cn1nc2c(N3CCOCC3)nccn2c1=O)NCc1ccccc1Cl | % | 3.88 |
| CC(C)c1nnc2c(SCC(=O)Nc3ccccc3C(F)(F)F)nc3ccccc3n12 | % | 0.36 |
| CSc1cccc(NC(=O)Cn2nc3c4c5c(sc4ncn3c2=O)CCCC5)c1 | % | 7.75 |
| Cc1cc(C)cc(NC(=O)Cn2nc3n(C)c(=O)c4c(c(-c5ccccc5)cn4C)n3c2=O)c1 | % | 0.06 |
| Cc1cccc(N(Cc2cccc(Cl)c2)S(=O)(=O)c2cccn3c(C)nnc23)c1 | % | 3 |
| COc1ccc(-c2cc3c4nn(CC(=O)Nc5ccccc5Cl)c(=O)n4ccn3n2)cc1 | % | 6.88 |
| CSc1ccc(CNC(=O)Cn2nc3c(Oc4cccc(C)c4C)nccn3c2=O)cc1 | % | 0.27 |
| Cc1ccccc1CSc1nnc2c(=O)n(-c3ccc(Br)cc3)ccn12 | % | 15.24 |
| O=C(Cn1nc2c(N3CCOCC3)nccn2c1=O)NCc1ccc(Cl)cc1 | % | 3.53 |
| O=C(CSc1nnc2c(=O)n(-c3ccccc3)ccn12)Nc1cccc(F)c1 | % | 7.33 |

###

- System: Klebsiella pneumoniae
- Condition Set: Concentration 32 ug.mL-1;; ASSAY_TEST Inhibition of Bacterial Growth; detection method Absorption (OD600); MEDIA CAMHB; plate type 384well; NBS; CORNING #3640; time 18 hr
- Description: Antibacterial activity against Klebsiella pneumoniae MDR ATCC 70063 (CO-ADD:GN_003); MIC in CAMBH media using NBS plates, by OD(600)
Potency and affinity values are given separately.
Experimental Endpoint: Inhibition (%)

| Molecule | System Name | Value Observed |
| --- | --- | --- |
| COc1ccc(N2CCN(C(=O)Cn3nc4ccc(-c5ccc(Cl)cc5)nn4c3=O)CC2)cc1 | Klebsiella pneumoniae | -0.61 |
| CCCCc1ccc(NC(=O)CSc2nc3ccccc3n3c(CC)nnc23)cc1 | Klebsiella pneumoniae | 13.43 |
| CCOc1ccc(NC(=O)Cn2nc3c(Sc4ccccc4)nccn3c2=O)cc1 | Klebsiella pneumoniae | 8.21 |
| CCCCc1ccc(NC(=O)CSc2nnc3c4cc(-c5ccc(C)cc5)nn4ccn23)cc1 | Klebsiella pneumoniae | 4.94 |
| CCc1ccccc1Sc1nccn2c(=O)n(CC(=O)NCc3cccs3)nc12 | Klebsiella pneumoniae | -0.44 |
| CCOc1ccccc1NC(=O)Cn1nc2c(Oc3ccccc3)nccn2c1=O | Klebsiella pneumoniae | 5.91 |
| O=C(Cn1nc2c(N3CCOCC3)nccn2c1=O)NCc1cc(F)cc(F)c1 | Klebsiella pneumoniae | 6.28 |
| Cc1ccc(-c2ccc3nn(Cc4cccc(Cl)c4)c(=O)n3n2)cc1C | Klebsiella pneumoniae | 12.21 |
| Cc1cc(C)cc(Nc2nc(C)cc3nn(CC(=O)Nc4cc(F)ccc4F)c(=O)n23)c1 | Klebsiella pneumoniae | 17.33 |
| O=C(Cn1nc2ccc(-c3ccc(Cl)cc3)nn2c1=O)NC1CCCC1 | Klebsiella pneumoniae | 16.69 |
| O=C(Cn1nc2c(SC3CCCCC3)nccn2c1=O)Nc1ccc(Br)cc1 | Klebsiella pneumoniae | 6.54 |
| CCC(C)NC(=O)Cn1nc2n(Cc3ccco3)c(=O)c3sccc3n2c1=O (centres undefined) | Klebsiella pneumoniae | 10.15 |
| COc1ccc(CNC(=O)CCc2nnc3ccc(-c4ccccc4)nn23)cc1OC | Klebsiella pneumoniae | 15.01 |
| Cc1cc(C)cc(Oc2nccn3c(=O)n(CC(=O)Nc4cccc(Cl)c4)nc23)c1 | Klebsiella pneumoniae | 0.09 |
| O=c1n(Cc2nc(-c3ccc(Cl)cc3)no2)nc2ccc(-c3ccccc3)nn12 | Klebsiella pneumoniae | 13.55 |
| CCOC(=O)C1CCN(c2nc3ccccc3n3c(=O)n(CC(=O)Nc4ccccc4F)nc23)CC1 | Klebsiella pneumoniae | 4.78 |
| Cc1nnc2ccc(S(=O)(=O)N(Cc3cccc(Cl)c3)c3ccc(F)cc3)cn12 | Klebsiella pneumoniae | 8 |
| Cc1ccc(-c2cc3c4nnc(SCC(=O)Nc5ccc(C#N)cc5)n4ccn3n2)cc1 | Klebsiella pneumoniae | 4.89 |
| CC(C)c1nnc2c(=O)n(CC(=O)Nc3ccc(Cl)c(Cl)c3)c3ccccc3n12 | Klebsiella pneumoniae | 5.02 |
| CC(C)Sc1ccc2nn(CC(=O)Nc3ccccc3F)c(=O)n2n1 | Klebsiella pneumoniae | 9.69 |
| Cc1ccc(Cl)cc1NC(=O)CSc1nc2ccccc2n2c(C(C)C)nnc12 | Klebsiella pneumoniae | 7.66 |
| COc1ccc(NC(=O)Cn2nc3c(Sc4ccccc4)nccn3c2=O)cc1OC | Klebsiella pneumoniae | 6.09 |
| Cc1nc(-c2ccccn2)cc2nn(CC(=O)Nc3ccccc3C(F)(F)F)c(=O)n12 | Klebsiella pneumoniae | 3.31 |
| CCCCOc1ccc(-c2cc3c4nnc(SCC(=O)Nc5ccc(C)c(C)c5)n4ccn3n2)cc1 | Klebsiella pneumoniae | 4.46 |

###

- System: Klebsiella pneumoniae
- Condition Set: Concentration 32 ug.mL-1;; ASSAY_TEST Inhibition of Bacterial Growth; detection method Absorption (OD600); MEDIA CAMHB; plate type 384well; NBS; CORNING #3640; time 18 hr
Potency and affinity values are given separately.
This section presents compounds with their documented Inhibition values.

| Compound | Unit Descriptor | Inhibition |
| --- | --- | --- |
| Cc1ccccc1N1CCN(c2nccn3c(=O)n(CC(=O)NCc4ccc(Cl)cc4)nc23)CC1 | % | 7.17 |
| O=C(Cn1nc2nc(Nc3ccc(F)cc3)ccn2c1=O)NCC1CCCO1 (stereo not given) | % | 12.02 |
| Cc1ccc(-c2nc(CSc3nc4ccccc4n4c(C(C)C)nnc34)c(C)o2)cc1 | % | 3.51 |
| Cc1ccc(-c2cc3c4nnc(CCC(=O)N5CCN(c6ccccc6F)CC5)n4ccn3n2)cc1C | % | 8.56 |
| CCc1ccc(NC(=O)CSc2nnc3c(=O)n(-c4ccccc4)ccn23)cc1 | % | 10.7 |
| CC(=O)c1ccc(N2CCN(C(=O)CCc3nnc4c5cc(-c6ccccc6)nn5ccn34)CC2)cc1 | % | 14.87 |
| Cc1cc2nn(CC(=O)Nc3cc(F)ccc3C)c(=O)n2c(Nc2ccc(C)c(F)c2)n1 | % | 11.43 |
| CCCCOc1ccc(-c2cc3c4nnc(SCC(=O)NCc5ccc(OC)cc5)n4ccn3n2)cc1 | % | 6.37 |
| CCCCc1ccc(NC(=O)Cn2nc3c(N4CC(C)CC(C)C4)nccn3c2=O)cc1 (stereo not given) | % | 3.89 |
| O=C(CSc1nnc2c(=O)n(-c3cccc(F)c3)ccn12)Nc1ccc(Br)cc1 | % | 9.48 |
| COc1ccc(NC(=O)CSc2nnc3c(=O)n(-c4ccccc4)ccn23)cc1OC | % | 12.94 |
| Cc1ccc(-n2ccn3c(=O)n(Cc4ccc(Cl)cc4)nc3c2=O)cc1C | % | 1.49 |
| O=c1n(Cc2cccc(C(F)(F)F)c2)nc2ccc(S(=O)(=O)N3CCCC3)cn12 | % | 10.57 |
| COc1ccc(-c2cc3c4nnc(SCC(=O)NCc5cccc(OC)c5OC)n4ccn3n2)cc1 | % | 6.86 |
| CCCCn1c(=O)c2sccc2n2c(CCC(=O)NCCC34CC5CC(CC(C5)C3)C4)nnc12 | % | 8.76 |
| COc1cccc(-n2ccn3c(SCC(=O)Nc4cccc(F)c4)nnc3c2=O)c1 | % | 0.65 |
| COc1ccc(-c2cc3c4nn(CC(=O)Nc5cc(C)ccc5OC)c(=O)n4ccn3n2)cc1 | % | 8.5 |
| COc1cc(Cl)c(C)cc1NC(=O)Cn1nc2ccc(SC(C)(C)C)nn2c1=O | % | 11.93 |
| COc1ccc(NC(=O)Cn2nc3ccc(Sc4ccccc4)nn3c2=O)cc1 | % | 3.54 |
| Cc1ccc(-n2ccn3c(SCC(N)=O)nnc3c2=O)cc1C | % | 20.66 |
| CCOC(=O)c1ccc(NC(=O)Cn2nc3ccc(-c4ccc(Cl)cc4)nn3c2=O)cc1 | % | 8.58 |
| O=C(Cn1nc2ccc(Sc3ccccc3)nn2c1=O)N1CCN(c2ccc(F)cc2)CC1 | % | 5.94 |
| CCOc1ccc(-n2ccn3c(SCC(=O)c4cccc(OC)c4)nnc3c2=O)cc1 | % | 9.6 |
| Cc1ccc(-c2ccc3nn(CC(=O)Nc4ccc(Br)cc4)c(=O)n3n2)cc1C | % | 12.28 |
| CCOc1ccc(-n2ccn3c(SCC(=O)Nc4cc(Cl)ccc4OC)nnc3c2=O)cc1 | % | 12.81 |
| CCOC(=O)c1ccc(NC(=O)Cn2nc3c4cc(-c5ccc(Cl)cc5)nn4ccn3c2=O)cc1 | % | 8.16 |
| CCc1ccc(N(Cc2ccccc2C)S(=O)(=O)c2cccn3c(CC)nnc23)cc1 | % | 6.17 |
| Cc1cc(Nc2ccc(F)cc2)nc2nn(CCc3ccccc3)c(=O)n12 | % | 16.97 |
| Cc1ccc(Sc2ccc3nn(CC(=O)Nc4cccc(Cl)c4)c(=O)n3n2)cc1 | % | -1.6 |
| CCOc1ccc(C(=O)Cn2nc3n(CCC(C)C)c(=O)c4sccc4n3c2=O)cc1 | % | 4.69 |
| CN(C)C(=O)CSc1nnc2c(=O)n(-c3ccc(F)cc3)ccn12 | % | 10.89 |
| CCOc1ccccc1NC(=O)Cn1nc2c3cc(-c4ccc(OC)cc4)nn3ccn2c1=O | % | 11.29 |
| COc1ccccc1-n1ccn2c(SCC(=O)Nc3ccc4c(c3)OCO4)nnc2c1=O | % | 8.58 |
| O=C(Cn1nc2c3cc(-c4ccccc4)nn3ccn2c1=O)N1CCCc2ccccc21 | % | 12.97 |
| COc1cccc(CN(c2cccc(C)c2)S(=O)(=O)c2ccc3nnc(C)n3c2)c1 | % | 4.27 |
| Cc1ccccc1CN(c1ccc(Cl)cc1)S(=O)(=O)c1cccn2c(C)nnc12 | % | 11.42 |
| O=C(CSc1nnc2c(=O)n(-c3ccc(Br)cc3)ccn12)c1c[nH]c2ccccc12 | % | 21.01 |
| COc1ccc(-c2cc3c4nn(CC(=O)Nc5ccccc5OC)c(=O)n4ccn3n2)cc1 | % | 7.14 |
| Cc1ccc(Oc2nccn3c(=O)n(CC(=O)Nc4ccc(Cl)cc4F)nc23)cc1 | % | 8.24 |
| Cc1cccc(C)c1NC(=O)Cn1nc2c(SC3CCCCC3)nccn2c1=O | % | 8.3 |

Cited source: ChEMBL document CHEMBL4513146
